Target: T1, recombinant human TIGIT (human, UniProt Q495A1 22-141, limits assumed)
T1 construct: recombinant human TIGIT used in Carterra SPR; also called hTIGIT
T1 sequence (looked up): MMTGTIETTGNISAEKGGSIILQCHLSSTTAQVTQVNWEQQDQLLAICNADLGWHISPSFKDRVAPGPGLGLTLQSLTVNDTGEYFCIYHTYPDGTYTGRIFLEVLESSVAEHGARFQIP
Assay: SPR Carterra, average

- BINDER: "TIGIT-SC202 (Fc fusion, VHH-Fc fusion in assay) VHH: EVQLVESGGGLVQPGGSLRLSCAASGFTFSPSWMGWFRQAPGKEREWVASVLRGGYTWYADSVKGRFTISADNSKNTAYLQMNSLKPEDTAVYYCTTDGGYSGIVGFAWGQGTLVTVSS"
  kon / M⁻¹ s⁻¹: 93800
- BINDER: "TIGIT-SC169 (Fc fusion, VHH-Fc fusion in assay) VHH: EVQLVESGGGLVQPGGSLRLSCAASGFTLNDYAMGWFRQAPGKERELVAWIARYDGSTLYADSVKGRFTISADNSKNTAYLQMNSLKPEDTAVYYCTTELRWELQQPDYWGQGTLVTVSS"
  kon / M⁻¹ s⁻¹: 211000
- BINDER: "TIGIT-SC30 (Fc fusion, VHH-Fc fusion in assay) VHH: EVQLVESGGGLVQPGGSLRLSCAASGRSFSSDWIGWFRQAPGKERELVAAIDWSGGSALYADSVKGRFTISADNSKNTAYLQMNSLKPEDTAVYYCARVNWNNVGWFDPWGQGTLVTVSS"
  kon / M⁻¹ s⁻¹: 231000
- BINDER: "TIGIT-SC168 (Fc fusion, VHH-Fc fusion in assay) VHH: EVQLVESGGGLVQPGGSLRLSCAASGFTFDRSWMGWFRQAPGKEREWVASVLRGGYAWYADSVKGRFTISADNSKNTAYLQMSSLKPEDTAVYYCAREGSGYASDYWGQGTLVTVSS"
  kon / M⁻¹ s⁻¹: 30400
